All figures here come from ChEMBL document CHEMBL1152250.

- System: MOLM-13
- Protocol notes: Antiproliferative activity against human MOLM13 cells after 72 hrs by WST-1 assay
- Assay type: functional
- Experimental context: MOLM-13, 72 h
Consider the following compounds; for each one, report its GI50.
Write down the numeric answer in nM and omit the unit.

Quickly give me recorded GI50 for N#Cc1cc(CCNc2ncc(-c3nnc(C4CC4)o3)c(Nc3ccccc3)n2)ccn1
10000

Quickly give me recorded GI50 for FCCCNc1nc(NCCc2ccncc2)ncc1-c1nnc(CN2CCNCC2)o1
99

Quickly give me recorded GI50 for CCCNc1nc(NCCc2ccncc2)ncc1-c1nnc(CN2CCOCC2)o1
43

Quickly give me recorded GI50 for CCCNc1nc(NCCc2ccncc2)ncc1-c1nnc(CN2CCN(C(C)=O)CC2)o1
66

Quickly give me recorded GI50 for CCNc1nc(NCCc2ccncc2)ncc1-c1nnc(CN2C[C@@H](C)N[C@@H](C)C2)o1
94

Quickly give me recorded GI50 for CS(=O)(=O)CCNc1nc(NCCc2ccncc2)ncc1-c1nnc(C2CC2)o1
588

Quickly give me recorded GI50 for CNc1nc(NCCc2ccncc2)ncc1-c1nnc(C2CC2)o1
139

Quickly give me recorded GI50 for CCCNc1nc(NCCc2ccncc2)ncc1-c1nnc(C2CC2)o1
36

Quickly give me recorded GI50 for Oc1cccc(Nc2nc(NCCc3ccncc3)ncc2-c2nnc(C3CC3)o2)c1
10

Quickly give me recorded GI50 for Oc1cc(CCNc2ncc(-c3nnc(C4CC4)o3)c(Nc3ccccc3)n2)ccn1
113

Quickly give me recorded GI50 for CC(C)Nc1nc(NCCc2ccncc2)ncc1-c1nnc(CN2CCNCC2)o1
49

Quickly give me recorded GI50 for c1ccc(Nc2nc(NCCc3ccncc3)ncc2-c2nnc(CN3CCNCC3)o2)cc1
74

Quickly give me recorded GI50 for Cc1ccc(Nc2nc(NCCc3ccncc3)ncc2-c2nnc(C3CC3)o2)cc1
23

Quickly give me recorded GI50 for CCCNc1nc(NCCc2ccncc2)ncc1-c1nnc(CN2CCN(CCO)CC2)o1
57

Quickly give me recorded GI50 for CCCNc1nc(NCCc2ccncc2)ncc1-c1nnc(CN2CCN(C)CC2)o1
19

Quickly give me recorded GI50 for c1ccc(Nc2nc(NCCc3ccncc3)ncc2-c2nnc(C3CC3)o2)cc1
40

Quickly give me recorded GI50 for [O-][n+]1ccc(CCNc2ncc(-c3nnc(C4CC4)o3)c(Nc3ccccc3)n2)cc1
3610

Quickly give me recorded GI50 for CCCNc1nc(NCCc2ccncc2)ncc1-c1nnc(CNCCN(C)C)o1
78

Quickly give me recorded GI50 for CCCNc1nc(NCCc2ccncc2)ncc1-c1nnc(CO)o1
56

Quickly give me recorded GI50 for COc1cc(CCNc2ncc(-c3nnc(C4CC4)o3)c(Nc3ccccc3)n2)ccn1
999

Quickly give me recorded GI50 for Cc1ccccc1Nc1nc(NCCc2ccncc2)ncc1-c1nnc(C2CC2)o1
40

###

- Tested on: MOLM-13
- Protocol notes: Antiproliferative activity against human MOLM13 cells after 72 hrs by WST-1 assay
- Assay type: functional
- Experimental context: MOLM-13, 72 h
Recorded endpoint: GI50 (nM)
Write down the numeric answer in nM and omit the unit.

Consider the compound CCNc1nc(NCCc2ccncc2)ncc1-c1nnc(CN2CCN(C)CC2)o1 tested on MOLM-13; state its GI50.
102

Consider the compound OCCNc1nc(NCCc2ccncc2)ncc1-c1nnc(C2CC2)o1 tested on MOLM-13; state its GI50.
123

Consider the compound CCCNc1nc(NCCc2ccncc2)ncc1-c1nnc(CN2C[C@@H](C)N[C@@H](C)C2)o1 tested on MOLM-13; state its GI50.
43

Consider the compound CNc1nc(NCCc2ccncc2)ncc1-c1nnc(CN2CCN(C)CC2)o1 tested on MOLM-13; state its GI50.
262

Consider the compound CCCOc1nc(NCCc2ccncc2)ncc1-c1nnc(CN2CCN(C)CC2)o1 tested on MOLM-13; state its GI50.
308

Consider the compound CCCNc1nc(NCCc2ccncc2)ncc1-c1nnc(CN(C)C)o1 tested on MOLM-13; state its GI50.
73
